Overview of recorded Binding energy for various molecules
PROTOCOL TEXT: Binding energy by using the equation deltaG obsd = -RT ln KD
Assay type: ADME
MEASURED PROPERTY: Binding energy (kcal/mol)

MOLECULE: O=C(O)CC(O)(CC(=O)O)C(=O)O [CITRIC ACID]
READOUT NUMBER: 5
//
MOLECULE: O=c1oc2ccccc2c(O)c1Cc1c(O)c2ccccc2oc1=O [DICUMAROL]
READOUT NUMBER: 8.8
//
MOLECULE: CCCCC[C@H](O)/C=C/[C@H]1[C@H](O)CC(=O)[C@@H]1C/C=C\CCCC(=O)O [DINOPROSTONE]
READOUT NUMBER: 11.5
//
MOLECULE: Cc1ccc(F)cc1NC1=NCCN1 [FLUTONIDINE]
READOUT NUMBER: 11.4
//
MOLECULE: CC(C)(C)NC[C@H](O)COc1nsnc1N1CCOCC1 [TIMOLOL]
READOUT NUMBER: 13
//
MOLECULE: O=C(NC1CCN(CCc2c[nH]c3ccccc23)CC1)c1ccccc1 [INDORAMIN]
READOUT NUMBER: 11.5
//
MOLECULE: OC1(c2ccc(Cl)c(C(F)(F)F)c2)CCN(CCCC(c2ccc(F)cc2)c2ccc(F)cc2)CC1 [PENFLURIDOL]
READOUT NUMBER: 9.9
//
MOLECULE: CCC1(CC=C2CCCCC2)C(=O)NC(=O)NC1=O
READOUT NUMBER: 8.4
//
MOLECULE: CN(C)CCC=C1c2ccccc2CCc2ccccc21 [AMITRIPTYLINE]
READOUT NUMBER: 12.3
//
MOLECULE: CN1CCC(=C2c3ccccc3CCc3sccc32)CC1 [PIZOTYLINE]
READOUT NUMBER: 13
//
MOLECULE: C[C@]12C[C@H](O)[C@H]3[C@@H](CCC4=CC(=O)CC[C@@]43C)[C@@H]1CC[C@@H]2C(=O)CO [CORTICOSTERONE]
READOUT NUMBER: 11.6
//
MOLECULE: CN1CCC(=C2c3ccccc3Oc3ccc(Cl)cc32)CC1 [CLOPIPAZAN]
READOUT NUMBER: 12.8
//
MOLECULE: CC(N)Cc1ccccc1 (centres undefined) [AMPHETAMINE]
READOUT NUMBER: 6.8
//
MOLECULE: O=P(O)(O)OC[C@H]1OC(O)(COP(=O)(O)O)[C@@H](O)[C@@H]1O (some centres undefined) [FOSFRUCTOSE]
READOUT NUMBER: 10.2

----------
PROTOCOL TEXT: Binding energy by using the equation deltaG obsd = -RT ln KD
Format: ADME
Could you please mark Satisfied for values of Binding energy below 10 kcal/mol and Not satisfied for values at or above it?

COMPOUND: O=C1CN=C(c2ccccn2)c2cc(Br)ccc2N1
LABEL: Not satisfied

COMPOUND: NC(=O)N1c2ccccc2C=Cc2ccccc21 [CARBAMAZEPINE]
LABEL: Satisfied

COMPOUND: CNC(=O)Oc1cccc2ccccc12
LABEL: Satisfied

COMPOUND: O=c1cccc2n1C[C@@H]1CNC[C@H]2C1
LABEL: Not satisfied

COMPOUND: CN1CCC[C@H]1c1cccnc1
LABEL: Not satisfied

COMPOUND: CN1C(=O)CN=C(c2ccccc2)c2cc(Cl)ccc21
LABEL: Not satisfied

COMPOUND: NC(CO)Cc1ccccc1 (configuration not stated)
LABEL: Satisfied
